This collection of values is drawn from patent US20200339548A1.

# EXPERIMENTAL_TARGET: Adenosine A1 receptor (Homo sapiens)
# Construct: expressed in transfected cells; host or cells: CHO cell membranes
# PROCEDURE_TEXT: Adenosine receptor TR-FRET binding assay, A1
# EXPERIMENTAL_PARAMETERS: Table 9, further testing; displacement of 100 nM CA200645, CHO cell membranes
ASSAY_METRIC: log10 of Ki (log10 of the value in nM)
In our notation, the value equals log10 of Ki in nM.

Consider the molecule Nc1nc(-c2ccco2)ncc1C(=O)NCc1ccc2cnccc2c1 [Example 5.47] . State its measured log10 of Ki.
3.68

Consider the molecule Cc1cccnc1CNC(=O)c1c(N)nc(-c2ccco2)nc1OCC(F)(F)F [Example 20.2] . State its measured log10 of Ki.
0.60

Consider the molecule Cc1cccc(CNC(=O)c2cnc(-c3ccco3)nc2N)c1 [Example 5.34] . State its measured log10 of Ki.
3.02

Consider the molecule Cc1cccnc1CNC(=O)c1c(N)nc(-c2ccco2)nc1OCC(C)(C)C [Example 20.10] . State its measured log10 of Ki.
0.69

Consider the molecule Nc1nc(-c2ccco2)ncc1C(=O)NCc1cccc(Cl)c1 [Example 5.12] . State its measured log10 of Ki.
2.98

Consider the molecule Nc1nc(-c2cccc(F)c2)ncc1C(=O)NCc1ccc(F)cc1 [Example 10.4] . State its measured log10 of Ki.
3.58

Consider the molecule Nc1nc(-c2cccc(F)c2)ncc1C(=O)NCc1cc(F)cc(F)c1 [Example 10.7] . State its measured log10 of Ki.
2.38

Consider the molecule Cn1ncnc1CNC(=O)c1c(N)nc(-c2cccc(C#N)c2)nc1OCCF [Example 24.7] . State its measured log10 of Ki.
2.16

Consider the molecule Nc1nc(-c2ccco2)ncc1C(=O)NC1CCc2ccccc21 (stereo not drawn) [Example 5.23] . State its measured log10 of Ki.
3.68

----------
# EXPERIMENTAL_TARGET: Adenosine A1 receptor (Homo sapiens)
# Sequence (P30542 1-326): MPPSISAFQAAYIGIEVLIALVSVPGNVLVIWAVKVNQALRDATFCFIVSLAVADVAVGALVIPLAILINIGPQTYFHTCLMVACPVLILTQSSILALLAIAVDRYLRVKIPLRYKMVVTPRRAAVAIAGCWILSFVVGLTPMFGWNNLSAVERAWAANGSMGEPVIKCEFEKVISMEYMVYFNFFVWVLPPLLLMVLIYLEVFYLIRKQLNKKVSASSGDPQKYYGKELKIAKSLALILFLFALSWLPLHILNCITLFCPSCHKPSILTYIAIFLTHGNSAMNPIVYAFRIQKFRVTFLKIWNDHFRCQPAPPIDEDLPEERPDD
pKi: −log10 of the molar value.
Quick rule for you: pKi at 6 or higher means T, lower means F.

Please tell me: is the molecule Nc1nc(-c2ccco2)ncc1C(=O)NCc1ncccc1Cl [Example 5.21] at or over 6 in terms of pKi?
F

Please tell me: is the molecule Nc1nc(-c2ccco2)ncc1C(=O)NCc1ncccc1C(F)(F)F [Example 5.30] at or over 6 in terms of pKi?
F

Please tell me: is the molecule Cc1cccnc1CNC(=O)c1c(N)nc(-c2ccco2)nc1OCCN1CCNCC1 [Example 23.2] at or over 6 in terms of pKi?
F

Please tell me: is the molecule Nc1cccnc1CNC(=O)c1cnc(-c2ccco2)nc1N [Example 5.53] at or over 6 in terms of pKi?
F

Please tell me: is the molecule Cc1cccnc1CNC(=O)c1cnc(-c2ccco2)nc1N [Example 3] at or over 6 in terms of pKi?
F

Please tell me: is the molecule Cc1cccnc1CNC(=O)c1cnc(-c2cccc(C#N)c2)nc1N [Example 12] at or over 6 in terms of pKi?
T

Please tell me: is the molecule Nc1nc(-c2cccc(F)c2)ncc1C(=O)NCc1ccccc1O [Example 10.1] at or over 6 in terms of pKi?
T

Please tell me: is the molecule Nc1nc(-c2cccc(F)c2)ncc1C(=O)NCc1cccc(C(F)(F)F)c1 [Example 10.11] at or over 6 in terms of pKi?
T

Please tell me: is the molecule Cc1cccnc1CNC(=O)c1c(N)nc(-c2cccc(C#N)c2)nc1OCCF [Example 24.8] at or over 6 in terms of pKi?
T

Please tell me: is the molecule Cc1cccnc1CNC(=O)c1c(N)nc(-c2ccco2)nc1Cl [Example 13] at or over 6 in terms of pKi?
T

Please tell me: is the molecule Nc1nc(-c2ccco2)ncc1C(=O)NCc1ccccc1C(F)F [Example 5.35] at or over 6 in terms of pKi?
F

Please tell me: is the molecule Nc1nc(-c2ccco2)ncc1C(=O)NCc1ccc2[nH]ccc2c1 [Example 5.41] at or over 6 in terms of pKi?
F

Please tell me: is the molecule CC(=O)NCCNc1nc(-c2ccco2)nc(N)c1C(=O)NCc1ncccc1C [Example 22] at or over 6 in terms of pKi?
T

Please tell me: is the molecule Cc1cccnc1CNC(=O)c1nnc(-c2ccc(F)cc2)nc1N [Example 8] at or over 6 in terms of pKi?
T

Please tell me: is the molecule CCn1ccnc1CNC(=O)c1cnc(-c2ccco2)nc1N [Example 5.26] at or over 6 in terms of pKi?
F

Please tell me: is the molecule Cc1cccnc1CNC(=O)c1c(N)nc(-c2ccco2)nc1OCCF [Example 20.7] at or over 6 in terms of pKi?
T

Please tell me: is the molecule Nc1nc(-c2ccco2)ncc1C(=O)NCc1cc2ccccc2cn1 [Example 5.36] at or over 6 in terms of pKi?
F
